System: wild oat
Experiment: Test B pre/postemergence wild oat
Format: in vivo, Avena fatua
Conditions: Preemergence, Rate 62 g/ha; scale of 0 to 10 where 0 is no effect and 10 is complete control
Quantity measured: Wild oats plant response rating

Worked cases, answers included:
>  <Molecule>
CC(C)N(C(=O)n1oc(=O)n(C(C)C)c1=O)c1ccc(Br)cc1 [Compound 691]

>  <Tested on>
wild oat

>  <Wild oats plant response rating>
2

$$$$
>  <Molecule>
CSCCn1c(=O)on(C(=O)N(c2ccc(F)cc2)C(C)C)c1=O [Compound 314]

>  <Tested on>
wild oat

>  <Wild oats plant response rating>
0

$$$$
>  <Molecule>
CC(C)N(C(=O)n1oc(=O)n(-c2cccnc2)c1=O)c1ccccc1 [Compound 235]

>  <Tested on>
wild oat

>  <Wild oats plant response rating>
0

$$$$

Proceeding to the next molecule to report its Wild oats plant response rating.
Enquiry: Specify Wild oats plant response rating for CC(C)N(Cc1ccccc1)C(=O)n1oc(=O)n(C(C)C)c1=O [Compound 165] and stop.
Return: 4

====

Measured Plant response rating, Redroot pigweed, listed per entry.
Test system: pigweed
Experiment: Test B pre/postemergence pigweed
Type: in vivo, Amaranthus retroflexus
Details: Preemergence, Rate 125 g/ha; scale 0 to 10 (0 no effect, 10 complete control)
Simply state the number, no unit and no words.

Worked cases, answers included:
>  <Molecule smiles>
COc1ccccc1-n1c(=O)on(C(=O)N(c2ccc(F)cc2)C(C)C)c1=O

>  <Plant response rating, Redroot pigweed>
0

$$$$
>  <Molecule smiles>
CC(C)N(C(=O)n1oc(=O)n(-c2ccc(Cl)cc2Cl)c1=O)c1ccc(F)cc1

>  <Plant response rating, Redroot pigweed>
0

$$$$
>  <Molecule smiles>
CC(C)N(C(=O)n1oc(=O)n(-c2c(Cl)cccc2Cl)c1=O)c1ccc(F)cc1

>  <Plant response rating, Redroot pigweed>
0

$$$$
>  <Molecule smiles>
CC(C)N(C(=O)n1oc(=O)n(-c2ccccc2)c1=O)c1ccc(F)cc1

>  <Plant response rating, Redroot pigweed>
10

$$$$
>  <Molecule smiles>
Cc1cc(C)c(-n2c(=O)on(C(=O)N(c3ccc(Cl)cc3)C(C)C)c2=O)c(C)c1

>  <Plant response rating, Redroot pigweed>
0

$$$$

Enquiry: Specify Plant response rating, Redroot pigweed for CC(C)N(C(=O)n1oc(=O)n(Cc2ccccc2)c1=O)c1ccc(F)cc1F and stop.
Return: 4

Enquiry: Specify Plant response rating, Redroot pigweed for Cc1cccc(C(C)C)c1-n1c(=O)on(C(=O)N(c2ccc(Cl)cc2)C(C)C)c1=O and stop.
Return: 0

Enquiry: Specify Plant response rating, Redroot pigweed for CC(C)N(C(=O)n1oc(=O)n(-c2ccccc2C(F)(F)F)c1=O)c1ccc(F)cc1 and stop.
Return: 0

====

Measured B. signalgrass plant response rating, listed per entry.
System: surinam grass
Assay: Test B pre/postemergence surinam grass
Assay type: in vivo, Brachiaria decumbens
Conditions: Rate 500 g/ha, Postemergence; scale 0 to 10, 0 no effect, 10 complete control
Method: […] At the same time, these crop and weed species were also treated with postemergence applications of test chemicals formulated in the same manner. […] Treated plants and controls were maintained in a greenhouse for twelve to sixteen days, after which all species were compared to controls and visually evaluated. […]
Simply state the number, no unit and no words.

Worked cases, answers included:
>  <Molecule smiles>
Cc1nsc(C)c1-n1c(=O)on(C(=O)N(c2ccc(Cl)cc2)C(C)C)c1=O

>  <B. signalgrass plant response rating>
0

$$$$
>  <Molecule smiles>
CC(C)N(C(=O)n1oc(=O)n(C2CCCC2)c1=O)c1ccccc1

>  <B. signalgrass plant response rating>
2

$$$$
>  <Molecule smiles>
CC(C)N(C(=O)n1oc(=O)n([C@H](C)c2ccccc2)c1=O)c1ccc(F)cc1F

>  <B. signalgrass plant response rating>
0

$$$$
>  <Molecule smiles>
COC(=O)Cn1c(=O)on(C(=O)N(c2ccc(F)cc2)C(C)C)c1=O

>  <B. signalgrass plant response rating>
3

$$$$
>  <Molecule smiles>
CSCCn1c(=O)on(C(=O)N(c2ccc(F)cc2)C(C)C)c1=O

>  <B. signalgrass plant response rating>
3

$$$$

Enquiry: Specify B. signalgrass plant response rating for Cc1ccccc1-n1c(=O)on(C(=O)N(c2ccc3c(c2)CCC3)C(C)C)c1=O and stop.
Return: 0

Enquiry: Specify B. signalgrass plant response rating for CC(C)N(C(=O)n1oc(=O)n(-c2cccnc2)c1=O)c1ccc(F)cc1 and stop.
Return: 0

====

Tested on: soybean
Assay: Test B pre/postemergence soybean
Assay type: in vivo, Glycine max
Conditions: Rate 62 g/ha, Postemergence; scale of 0 to 10 where 0 is no effect and 10 is complete control
Assign class by Soybean plant response rating: not lower than 1 means class 1; lower than 1 means class 0.

Observe how each entry below is paired with its result.
>  <Compound>
Cc1nsc(C)c1-n1c(=O)on(C(=O)N(c2ccc(Cl)cc2)C(C)C)c1=O [Compound 159]

>  <Label>
class 0

$$$$
>  <Compound>
CCN(CC)C(=O)n1oc(=O)n(Cc2ccccc2)c1=O [Compound 152]

>  <Label>
class 0

$$$$
>  <Compound>
CC(C)N(C(=O)n1oc(=O)n(C2CCCCCC2)c1=O)c1ccc(F)cc1F [Compound 342]

>  <Label>
class 1

$$$$

Enquiry: Check if Soybean plant response rating >= 1 (inclusive). Item: COc1ccccc1Cn1c(=O)on(C(=O)N(c2ccccc2)C(C)C)c1=O [Compound 104]
Return: class 1

Enquiry: Check if Soybean plant response rating >= 1 (inclusive). Item: CC(=O)OCCCCn1c(=O)on(C(=O)N(c2ccc(F)cc2)C(C)C)c1=O [Compound 211]
Return: class 1

Enquiry: Check if Soybean plant response rating >= 1 (inclusive). Item: CC(C)N(C(=O)n1oc(=O)n(-c2ccc(OC(F)(F)F)cc2)c1=O)c1ccc(F)cc1 [Compound 202]
Return: class 1

====

System: surinam grass
Assay: Test B pre/postemergence surinam grass
Assay type: in vivo, Brachiaria decumbens
Conditions: Rate 500 g/ha, Postemergence; scale of 0 to 10 where 0 is no effect and 10 is complete control
Quantity measured: B. signalgrass plant response rating
Simply state the number, no unit and no words.

Worked cases, answers included:
>  <Molecule smiles>
CC(C)N(C(=O)n1oc(=O)n(Cc2ccccc2)c1=O)c1ccc(F)cc1F

>  <Tested on>
surinam grass

>  <Quantity measured>
B. signalgrass plant response rating

>  <Value measured>
0

$$$$
>  <Molecule smiles>
Cc1cccc(C(C)C)c1-n1c(=O)on(C(=O)N(c2ccc(Cl)cc2)C(C)C)c1=O

>  <Tested on>
surinam grass

>  <Quantity measured>
B. signalgrass plant response rating

>  <Value measured>
0

$$$$
>  <Molecule smiles>
CC(C)N(C(=O)n1oc(=O)n(C)c1=O)c1ccc(F)cc1

>  <Tested on>
surinam grass

>  <Quantity measured>
B. signalgrass plant response rating

>  <Value measured>
8

$$$$
>  <Molecule smiles>
CCN(CC)C(=O)n1oc(=O)n(Cc2ccccc2)c1=O

>  <Tested on>
surinam grass

>  <Quantity measured>
B. signalgrass plant response rating

>  <Value measured>
0

$$$$
>  <Molecule smiles>
CC(C)N(C(=O)n1oc(=O)n(Cc2cccs2)c1=O)c1ccc(F)cc1F

>  <Tested on>
surinam grass

>  <Quantity measured>
B. signalgrass plant response rating

>  <Value measured>
0

$$$$

Enquiry: Specify B. signalgrass plant response rating for CC(C)N(C(=O)n1oc(=O)n(-c2cccc3c2CCCC3)c1=O)c1ccc(F)cc1 and stop.
Return: 0

Enquiry: Specify B. signalgrass plant response rating for CC(C)N(C(=O)n1oc(=O)n(-c2cnn(C)c2)c1=O)c1ccccc1 and stop.
Return: 5

====

Measured Plant response rating, Morningglory, listed per entry.
Tested on: morningglory
Assay: Test B pre/postemergence morningglory
Assay type: in vivo, Ipomoea hederacea
Details: Rate 250 g/ha, Postemergence; scale of 0 to 10 where 0 is no effect and 10 is complete control
Simply state the number, no unit and no words.

Worked cases, answers included:
>  <Molecule smiles>
COCn1c(=O)on(C(=O)N(c2ccc(F)cc2)C(C)C)c1=O

>  <Tested on>
morningglory

>  <Plant response rating, Morningglory>
5

$$$$
>  <Molecule smiles>
CC(C)N(C(=O)n1oc(=O)n(CCC(F)(F)F)c1=O)c1ccc(F)cc1F

>  <Tested on>
morningglory

>  <Plant response rating, Morningglory>
2

$$$$
>  <Molecule smiles>
CC(C)N(C(=O)n1oc(=O)n(CCC(F)=C(F)F)c1=O)c1ccccc1

>  <Tested on>
morningglory

>  <Plant response rating, Morningglory>
6

$$$$

Proceeding to the next compound to report its Plant response rating, Morningglory.
Enquiry: Specify Plant response rating, Morningglory for CCOCn1c(=O)on(C(=O)N(c2ccc(F)cc2)C(C)C)c1=O and stop.
Return: 7

====

System: blackgrass
Test: Test B pre/postemergence blackgrass
Type: in vivo, Alopecurus myosuroides
Conditions: Preemergence, Rate 125 g/ha; 0 is no effect, 10 is complete control
Measured Blackgrass plant response rating (0 to 10 scale), listed per entry.
Simply state the number, no unit and no words.

Worked cases, answers included:
>  <Molecule>
CC(C)N(Cc1ccccc1)C(=O)n1oc(=O)n(C(C)C)c1=O [Compound 165]

>  <Tested on>
blackgrass

>  <Value measured>
3

$$$$
>  <Molecule>
CC(C)N(C(=O)n1oc(=O)n(Cc2ccco2)c1=O)c1ccc(Cl)cc1 [Compound 206]

>  <Tested on>
blackgrass

>  <Value measured>
0

$$$$
>  <Molecule>
Cc1nsc(C)c1-n1c(=O)on(C(=O)N(c2ccc(F)cc2)C(C)C)c1=O [Compound 157]

>  <Tested on>
blackgrass

>  <Value measured>
0

$$$$

Enquiry: Specify Blackgrass plant response rating (0 to 10 scale) for Cc1nsc(C)c1-n1c(=O)on(C(=O)N(c2ccc(Cl)cc2)C(C)C)c1=O [Compound 159] and stop.
Return: 0
